tested on: HFF; experiment: Cytotoxicity against HFF cells assessed as reduction in cell viability incubated for 48 hrs by MTT assay; format: ADME, cell-based; settings: Homo sapiens
Overview of reported IC50 across a group of molecules:
Give just the numeric value; nM need not be written.

# lookup: IC50 of COc1cc2c(cc1OC)C(=O)/C(=C/c1ccc(N3CC[N+](C)(Cc4ccccc4)CC3)cc1)C2 2400

Continuing:
Which measured IC50 value corresponds to COc1cc2c(cc1OC)C(=O)/C(=C/c1ccc(N3CC[N+](C)(Cc4cccc(Cl)c4)CC3)cc1)C2.[Br-] ? 1980

====

species: Homo sapiens; experiment: Selectivity ratio of IC50 for human erythrocyte AChE to IC50 for human plasma BuChE
Lab note: anything with Ratio IC50 below 0.6 is marked Criterion met; values at 0.6 or higher are marked Criterion not met.

Field: example entries. Status: answers known.
Problem: For the compound COc1cc2c(cc1OC)C(=O)/C(=C/c1ccc(N3CC[N+](C)(Cc4cccc(Cl)c4)CC3)cc1)C2.[Br-] , is Ratio IC50 under 0.6? Criterion not met

Is 0.6 strictly greater than the compound's reported Ratio IC50? compound: COc1cc2c(cc1OC)C(=O)/C(=C/c1ccc(N3CC[N+](C)(CCO)CC3)cc1)C2 Criterion met

Hello, I'm reviewing records and need to know if Ratio IC50 of COc1cc2c(cc1OC)C(=O)/C(=C/c1ccc(N3CC[N+](C)(Cc4ccc(Br)cc4)CC3)cc1)C2 is below 0.6. Could you check? Criterion met

Bench note: check whether COc1cc2c(cc1OC)C(=O)/C(=C/c1ccc(N3CC[N+](C)(Cc4ccccn4)CC3)cc1)C2 shows Ratio IC50 below 0.6 Criterion met

Find out if reported Ratio IC50 for CCCC[N+]1(C)CCN(c2ccc(/C=C3\Cc4cc(OC)c(OC)cc4C3=O)cc2)CC1 is less than 0.6 Criterion met

For this compound, is Ratio IC50 lower than 0.6? COc1cc2c(cc1OC)C(=O)/C(=C/c1ccc(N3CC[N+](C)(Cc4cccc(Br)c4)CC3)cc1)C2 Criterion not met

Please indicate whether the reported Ratio IC50 of CCCCCC[N+]1(C)CCN(c2ccc(/C=C3\Cc4cc(OC)c(OC)cc4C3=O)cc2)CC1 is strictly below 0.6. Criterion not met

Does the reported Ratio IC50 of COc1cc2c(cc1OC)C(=O)/C(=C/c1ccc(N3CC[N+](C)(Cc4ccccc4)CC3)cc1)C2 stay below 0.6? Criterion not met

Given the entry COc1cc2c(cc1OC)C(=O)/C(=C/c1ccc(N3CC[N+](C)(Cc4ccccc4Br)CC3)cc1)C2 , would its reported Ratio IC50 be below 0.6? Criterion met

For C=CC[N+]1(C)CCN(c2ccc(/C=C3\Cc4cc(OC)c(OC)cc4C3=O)cc2)CC1 , is the recorded Ratio IC50 below the cut-off of 0.6? Criterion met

Continuing:
Identify whether the compound CCCCC[N+]1(C)CCN(c2ccc(/C=C3\Cc4cc(OC)c(OC)cc4C3=O)cc2)CC1 records Ratio IC50 below 0.6. Criterion met

Does COc1cc2c(cc1OC)C(=O)/C(=C/c1ccc(N3CC[N+](C)(Cc4ccccc4Cl)CC3)cc1)C2 have Ratio IC50 strictly under 0.6? Criterion met

Quick check: Ratio IC50 of CCC[N+]1(C)CCN(c2ccc(/C=C3\Cc4cc(OC)c(OC)cc4C3=O)cc2)CC1 under 0.6? Criterion met
